System: K98450-129-R-PDC complex spheroid growth, percent test/control;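 note: luminescence used as a proxy for viable cell amount; spheroids exposed to agents for seven days before the viability readout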
Test: Anticancer human tumor K98450-129-R-PDC patient-derived colon adenocarcinoma cell line growth inhibition [RAS]
Settings: second compound 0.00949 µM; first compound 0.316 µM; stronger effect = lower value
MEASUREMENT_NAME: viability, T/C (%)
Hi! Could you send only the number? It should be in %, unit omitted.

Worked cases, viability, T/C given:
{"COMPOUND": "CCC(CC)c1cc(NC2CCC(N)C2)n2nccc2n1 (configuration not stated) + CCn1c(-c2cccnc2C(C)OC)c2c3cc(ccc31)N1CCOC(CC(NC(=O)C(C(C)C)N(C)C(=O)C3(F)CCN(C(=O)C#CC(C)(C)N(C)C)CC3)C(=O)N3CCCC(N3)C(=O)OCC(C)(C)C2)C1", "REPORTED_VALUE": 48.8}
{"COMPOUND": "C=CC(=O)N1CCN(c2nc(OCC3CCCN3C)nc3c(F)c(-c4nc(N)cc(C)c4C(F)(F)F)c(Cl)cc23)C(C)C1 (configuration not stated) + CCn1c(-c2cccnc2C(C)OC)c2c3cc(ccc31)N1CCOC(CC(NC(=O)C(C(C)C)N(C)C(=O)C3(F)CCN(C(=O)C#CC(C)(C)N(C)C)CC3)C(=O)N3CCCC(N3)C(=O)OCC(C)(C)C2)C1", "REPORTED_VALUE": 39.9}
{"COMPOUND": "C=CC(=O)Nc1cc(Nc2nccc(-c3cn(C)c4ccccc34)n2)c(OC)cc1N(C)CCN(C)C + CCn1c(-c2cccnc2C(C)OC)c2c3cc(ccc31)N1CCOC(CC(NC(=O)C(C(C)C)N(C)C(=O)C3(F)CCN(C(=O)C#CC(C)(C)N(C)C)CC3)C(=O)N3CCCC(N3)C(=O)OCC(C)(C)C2)C1", "REPORTED_VALUE": 11.1}
{"COMPOUND": "CC(=O)OC12COC1CC(O)C1(C)C(=O)C(O)C3=C(C)C(OC(=O)C(O)C(NC(=O)OC(C)(C)C)c4ccccc4)CC(O)(C(OC(=O)c4ccccc4)C21)C3(C)C (configuration not stated) + CCn1c(-c2cc(N3CCN(C)CC3)cnc2C(C)OC)c2c3cc(ccc31)-c1csc(n1)CC(NC(=O)C1CC1C)C(=O)N1CCCC(N1)C(=O)OCC(C)(C)C2", "REPORTED_VALUE": 35.6}
{"COMPOUND": "CC1(O)CCCC1n1c(=O)c(C(F)F)cc2cnc(NC3CCN(S(C)(=O)=O)CC3)nc21 (configuration not stated) + CCn1c(-c2cc(N3CCN(C)CC3)cnc2C(C)OC)c2c3cc(ccc31)-c1csc(n1)CC(NC(=O)C1CC1C)C(=O)N1CCCC(N1)C(=O)OCC(C)(C)C2", "REPORTED_VALUE": 60.5}
{"COMPOUND": "Cc1nc(N2CCC3(CC2)COC(C)C3N)c(CO)nc1Sc1ccnc(N)c1Cl (configuration not stated) + CCn1c(-c2cccnc2C(C)OC)c2c3cc(ccc31)N1CCOC(CC(NC(=O)C(C(C)C)N(C)C(=O)C3(F)CCN(C(=O)C#CC(C)(C)N(C)C)CC3)C(=O)N3CCCC(N3)C(=O)OCC(C)(C)C2)C1", "REPORTED_VALUE": 12.3}

API: the following record is the query input.
QUERY: Tell me the measured viability, T/C of Nc1ccn(C2OC(CO)C(O)C2(F)F)c(=O)n1 (configuration not stated) + CCn1c(-c2cccnc2C(C)OC)c2c3cc(ccc31)N1CCOC(CC(NC(=O)C(C(C)C)N(C)C(=O)C3(F)CCN(C(=O)C#CC(C)(C)N(C)C)CC3)C(=O)N3CCCC(N3)C(=O)OCC(C)(C)C2)C1 , please.
RESULT: 19.9
